FYI, the data here is from ChEMBL document CHEMBL1938376.

Items are presented alongside their recorded pIC50.
- Tested on: Leishmania infantum
- experimental details: Antiparasitic activity against amastigotes of Leishmania infantum infected in mouse peritoneal macrophages after 5 days using giemsa staining by microscopic analysis
- Format: functional, organism-based
- condition details: Leishmania infantum, 120 h
pIC50: −log10 of the molar value.
measure name: pIC50

compound="CC(=O)C1=NN(c2ccccc2)C2C3N(c4ccccc4)N=C(C(C)=O)N3c3[nH]c(-c4ccccc4)cc3N12 (stereo not drawn)" experimental_result=4.49
compound="CCOC(=O)C1=NN(c2ccc(Cl)cc2)C2C3N(c4ccc(Cl)cc4)N=C(C(=O)OCC)N3c3[nH]c(-c4ccccc4)cc3N12 (stereo not drawn)" experimental_result=4.19
compound="CC(=O)C1=NN(c2ccccc2)[C@@H]2N1c1ccccc1N1C(C(C)=O)=NN(c3ccccc3)[C@@]21C (racemic)" experimental_result=4.62
compound="C1=C(c2ccccc2)NC2=NC=C3N(c4ccccc4)N=C(c4ccccc4)N3C12 (stereo not drawn)" experimental_result=4.19
compound="COC(=O)C1=NN(c2ccccc2)C2=CN=C3NC(c4ccccc4)=CC3N21 (stereo not drawn)" experimental_result=4.19
compound="C1=NN(c2ccccc2)C2C3N(C=NN3c3ccccc3)c3ccccc3N12 (stereo not drawn)" experimental_result=4.19
compound="COC(=O)C1=NN(c2ccc(Cl)cc2)C2C3N(c4ccc(Cl)cc4)N=C(C(=O)OC)N3c3c(C)cccc3N12 (racemic)" experimental_result=4.19
compound="O=C(C1=NN(c2ccccc2)C2C3N(c4ccccc4)N=C(C(=O)c4ccccc4)N3c3ccccc3N12)c1ccccc1 (stereo not drawn)" experimental_result=4.49

* * *

- experimental details: Solubility of the compound in 13% DMSO/water
- Type: physicochemical
- condition details: buffer
measure name: solubility

molecule="COC(=O)C1=NN(c2ccc(Cl)cc2)C2(C1)Nc1ccccc1N1C(C(=O)OC)=NN(c3ccc(Cl)cc3)C12 (racemic)" experimental_result=soluble
molecule="COC(=O)C1=NN(c2ccc(Cl)cc2)C2C3N(c4ccc(Cl)cc4)N=C(C(=O)OC)N3c3c(C)cccc3N12 (racemic)" experimental_result=soluble
molecule="COC(=O)C1=NN(c2ccccc2)C2C3N(c4ccccc4)N=C(C(=O)OC)N3c3ccccc3N12 (stereo in doubt; 4d)" experimental_result=soluble
